molecular target: Rap guanine nucleotide exchange factor 3 (Homo sapiens) (UniProt O95398); experiment: Binding affinity to GST-tagged recombinant EPAC1 CNBD (169 to 318 residues) (unknown origin) expressed in Escherichia coli BL21 Star (DE3) assessed as relative fluorescence intensity incubated for 4 hrs by 8-NBD-cAMP competition binding assay relative to control; set-up: concentration or dose not given beside the values
Sequence (O95398 whole entry, the tested form may be a part): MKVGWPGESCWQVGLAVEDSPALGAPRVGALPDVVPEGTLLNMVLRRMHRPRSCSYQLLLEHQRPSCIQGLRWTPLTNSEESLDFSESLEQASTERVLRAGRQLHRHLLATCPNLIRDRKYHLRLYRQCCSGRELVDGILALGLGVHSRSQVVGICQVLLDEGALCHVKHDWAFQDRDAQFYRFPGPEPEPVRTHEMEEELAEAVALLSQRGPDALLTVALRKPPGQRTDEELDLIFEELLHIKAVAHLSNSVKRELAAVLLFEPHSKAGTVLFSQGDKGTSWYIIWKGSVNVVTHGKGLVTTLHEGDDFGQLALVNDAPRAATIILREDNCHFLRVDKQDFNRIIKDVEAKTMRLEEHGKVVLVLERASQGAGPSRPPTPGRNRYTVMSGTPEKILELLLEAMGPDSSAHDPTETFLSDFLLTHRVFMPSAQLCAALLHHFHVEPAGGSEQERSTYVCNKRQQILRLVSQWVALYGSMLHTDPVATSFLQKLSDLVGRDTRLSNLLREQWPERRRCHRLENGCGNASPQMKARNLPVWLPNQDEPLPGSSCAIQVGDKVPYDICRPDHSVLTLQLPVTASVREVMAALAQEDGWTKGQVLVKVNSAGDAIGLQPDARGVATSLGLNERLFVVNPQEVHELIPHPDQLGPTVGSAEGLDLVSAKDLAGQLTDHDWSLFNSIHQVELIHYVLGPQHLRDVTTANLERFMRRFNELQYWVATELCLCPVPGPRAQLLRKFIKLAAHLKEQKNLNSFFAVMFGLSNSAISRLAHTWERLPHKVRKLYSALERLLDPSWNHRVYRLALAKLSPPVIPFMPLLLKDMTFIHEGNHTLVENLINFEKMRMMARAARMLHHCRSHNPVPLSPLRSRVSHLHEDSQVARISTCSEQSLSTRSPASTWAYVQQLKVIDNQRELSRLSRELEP
QUANTITY_NAME: Activity

{"CHEM_SMILES": "O=C(COc1ccc2ccccc2c1)NS(=O)(=O)c1cccc(F)c1", "OBSERVED_RESULT": "82%"}
{"CHEM_SMILES": "O=C(COc1ccc2ccccc2c1)NS(=O)(=O)c1ccc(F)cc1", "OBSERVED_RESULT": "81%"}
{"CHEM_SMILES": "COc1ccc2ccc(OCC(=O)NS(=O)(=O)c3cc(C)cc(Br)c3)cc2c1", "OBSERVED_RESULT": "29%"}
